Below, each entry is listed with its recorded Size.
Run description: Dynamic light scattering of lipid nanoparticles (size, PDI)
Type: physicochemical
Particulars: LNP with cationic lipid CL-B
Provide the reading as a plain figure in nm.

Consider the worked cases shown below.
{"Compound": "CCCCCCCCC(CCCCCCCC)OC(=O)CCCCCCC(=O)OCC(COP(=O)(O)OCC[N+](C)(C)C)OC(=O)CCCCCCC(=O)OC(CCCCCCCC)CCCCCCCC (stereo not drawn) [Compound 24]", "Reported result": 107.0}
{"Compound": "CCCCCCCCC(CCCCCCCC)OC(=O)CCCCCCC(=O)OCC(COP(=O)(O)OCCN(C)CCO)OC(=O)CCCCCCC(=O)OC(CCCCCCCC)CCCCCCCC (stereo not drawn) [Compound 25]", "Reported result": 120.1}
{"Compound": "CCCCCCCCOC(=O)CCCCCCCC(=O)OC(COC(=O)CCCCCCC(=O)OC(CCCCCCCC)CCCCCCCC)COP(=O)(O)OCCN(C)C (stereo not drawn) [Compound 11]", "Reported result": 102.1}
{"Compound": "CCCCCCCCC(CCCCCCCC)OC(=O)CCCCCC(=O)OCC(COP(=O)(O)OCCN(C)C)OC(=O)CCCCCC(=O)OC(CCCCCCCC)CCCCCCCC (stereo not drawn) [Compound 15]", "Reported result": 110.7}
{"Compound": "CCCCCCCCCC(CCCCCCCCC)C(=O)OCC(COP(=O)(O)OCCN(C)C)OC(=O)C(CCCCCCCCC)CCCCCCCCC (stereo not drawn) [Compound 9]", "Reported result": 108.2}

Return the recorded Size value; entry: CCCCCCCCC(CCCCCCCC)OC(=O)CCCCCCC(=O)OCC(COP(=O)(O)OCCN(C)C)OC(=O)CCCCCCC(=O)OC(CCCCCCCC)CCCCCCCC (stereo not drawn) [Compound 12] 109.6

In one line, give reported Size of the entry CCCCCCCCC(CCCCCCCC)C(=O)OCCCCCC(=O)OCC(COP(=O)(O)OCCN(C)C)OC(=O)CCCCCOC(=O)C(CCCCCCCC)CCCCCCCC (stereo not drawn) [Compound 17] . 122.7

Specify reported Size for the compound shown: CCCCCCCCC(CCCCCCCC)OC(=O)CCCCCCC(=O)OCC(COP(=O)(O)OCCN)OC(=O)CCCCCCC(=O)OC(CCCCCCCC)CCCCCCCC (stereo not drawn) [Compound 6] 119.9

Answer with reported Size of CCCCCCCCC(CCCCC)COC(=O)CCC(=O)OCC(COP(=O)(O)OCCN(C)C)OC(=O)CCC(=O)OCC(CCCCC)CCCCCCCC (stereo not drawn) [Compound 10] 95.9

Please give measured Size of the following entry: CCCCCCCCC(CCCCC)COC(=O)CCC(=O)OCC(COP(=O)(O)OCCN)OC(=O)CCC(=O)OCC(CCCCC)CCCCCCCC (stereo not drawn) [Compound 5] 98.9

Read the entry CCCCCCCCC(CCCCCCCC)OC(=O)CCCCCCC(=O)OC[C@@H](COP(=O)(O)OCCN(C)C)OC(=O)CCCCCCC(=O)OC(CCCCCCCC)CCCCCCCC [Compound 13] and write its reported Size. 141.9

Report Size for CCCCCCCCC(CCCCC)COC(=O)CCC(=O)OCC(COP(=O)(O)OCCN)OC(=O)CCC(=O)OCC(CCCCC)CCCCCCCC (stereo not drawn) [Compound 4] 104.7
